experiment: clinical
Assay type: in vivo
measurementParameters: both sexes, human, plasma, oral, 200 mg, 200 mg Pycnogenol once daily for five days, 4 h after last dose, without enzyme incubation; read-out: Free plasma concentration
Form field: concentration at 4 h (one value per entry).
Reply with just the number (in ng/mL).

{"molecule": "O=C(O)/C=C/c1ccc(O)c(O)c1", "concentration at 4 h / ng/mL": 0.56}

## Input Kindly indicate its recorded concentration at 4 h. Item: Oc1cc(O)c2c(c1)O[C@H](c1ccc(O)c(O)c1)[C@@H](O)C2 [Catechin, (+)-catechin]
## Output 21

---

experiment: clinical
Type: in vivo
measurementParameters: both sexes, human, in vivo, 200 mg; read-out: Total plasma concentration
measuredAttribute: concentration at 4 h

## Input Please give measured concentration at 4 h of the following entry: COc1cc(/C=C/C(=O)O)ccc1O
## Output ~20 ng/mL

---

experiment: Plasma kinetics after single oral dose of 300 mg Pycnogenol in healthy volunteers
Assay type: in vivo, human
measurementParameters: both sexes, human, plasma, po, 300 mg, human volunteers, single oral dose 300 mg Pycnogenol, total plasma, mean ± SD; read-out: cmax (maximal plasma concentration)
Catalogue of Cmax values

Consider the worked cases shown below.
{"molecule": "O=C1c2c(O)cc(O)cc2O[C@H](c2ccc(O)c(O)c2)[C@H]1O (racemic) [Taxifolin, (±)-taxifolin]", "result": "33.3 ng/mL"}
{"molecule": "O=C(O)/C=C/c1ccc(O)c(O)c1", "result": "~17 ng/mL"}

## Input Provide measured Cmax value, entry: Oc1cc(O)c2c(c1)O[C@H](c1ccc(O)c(O)c1)[C@@H](O)C2 [Catechin, (+)-catechin]
## Output ~100 ng/mL

## Input Using the record for COc1cc(/C=C/C(=O)O)ccc1O , state its measured Cmax.
## Output ~15 ng/mL

## Input Write down Cmax measured for item O=C1CCC(Cc2ccc(O)c(O)c2)O1 (centres unmarked) [M1, δ-(3,4-Dihydroxy-phenyl)-γ-valerolactone]
## Output ~4 ng/mL

---

experiment: Plasma kinetics after single oral dose of 300 mg Pycnogenol in healthy volunteers
Format: in vivo, human
measurementParameters: human volunteers, single oral dose 300 mg Pycnogenol, total plasma, mean ± SD
measuredAttribute: tmax (time of maximal plasma concentration) (h)
Number in h, nothing else.

{"molecule": "O=C(O)/C=C/c1ccc(O)c(O)c1 [Caffeic acid, caffeic acid]", "endpointUnit": "h", "numericReadout": 3.7}
{"molecule": "Oc1cc(O)c2c(c1)O[C@H](c1ccc(O)c(O)c1)[C@@H](O)C2 [Catechin, (+)-catechin]", "endpointUnit": "h", "numericReadout": 3.2}

## Input Indicate its recorded tmax (time of maximal plasma concentration); the molecule in question is COc1cc(/C=C/C(=O)O)ccc1O [Ferulic acid, ferulic acid]
## Output 1.2

## Input Give me measured tmax (time of maximal plasma concentration), please, for this molecule: O=C1c2c(O)cc(O)cc2O[C@H](c2ccc(O)c(O)c2)[C@H]1O (racemic) [Taxifolin, (±)-taxifolin]
## Output 8.2

---

experiment: Plasma kinetics after single oral dose of 300 mg Pycnogenol in healthy volunteers
Type: in vivo, human
measurementParameters: both sexes, human, plasma, po, 300 mg, human volunteers, single oral dose 300 mg Pycnogenol, total plasma, mean ± SD; read-out: AUC [t-8]
Listing of entries alongside the reported AUC(0-t).
Give just the numeric value; ng·h/mL need not be written.

{"molecule": "O=C1c2c(O)cc(O)cc2O[C@H](c2ccc(O)c(O)c2)[C@H]1O (racemic) [Taxifolin, (±)-taxifolin]", "numericReadout": 399}

## Input Given O=C(O)/C=C/c1ccc(O)c(O)c1 , respond with its AUC(0-t).
## Output 82.8

## Input Answer with the recorded AUC(0-t) for the molecule listed here: COc1cc(/C=C/C(=O)O)ccc1O
## Output 141
